# Test: Human pK study of carnosine after beef consumption (Park et al. 2005)
# Assay type: in vivo, humans
# Assay Context: human, whole blood, oral; 250 mg carnosine; Mw of 266, assuming 5 liters of blood; read-out: blood conc
Observable: concentration at 3 h (µM)
Report only the number, with the unit µM understood.

QUERY: Please report the recorded concentration at 3 h for NCCC(=O)N[C@@H](Cc1cnc[nH]1)C(=O)O [Carnosine] .
RESULT: 620

Data origin: patent US7442394B2
